Reference source for all entries: patent US20230338555A1

Provide the recorded Mean Fluorescence Intensity (MFI), uptake 37C-4C, at 333 nM for the entries that follow.
TARGET_ENTITY: T1, human sortilin stably expressed on HEK 293 cells (HEK-SORT1 cells) (human, UniProt Q99523 78-831)
T1 sequence (looked up): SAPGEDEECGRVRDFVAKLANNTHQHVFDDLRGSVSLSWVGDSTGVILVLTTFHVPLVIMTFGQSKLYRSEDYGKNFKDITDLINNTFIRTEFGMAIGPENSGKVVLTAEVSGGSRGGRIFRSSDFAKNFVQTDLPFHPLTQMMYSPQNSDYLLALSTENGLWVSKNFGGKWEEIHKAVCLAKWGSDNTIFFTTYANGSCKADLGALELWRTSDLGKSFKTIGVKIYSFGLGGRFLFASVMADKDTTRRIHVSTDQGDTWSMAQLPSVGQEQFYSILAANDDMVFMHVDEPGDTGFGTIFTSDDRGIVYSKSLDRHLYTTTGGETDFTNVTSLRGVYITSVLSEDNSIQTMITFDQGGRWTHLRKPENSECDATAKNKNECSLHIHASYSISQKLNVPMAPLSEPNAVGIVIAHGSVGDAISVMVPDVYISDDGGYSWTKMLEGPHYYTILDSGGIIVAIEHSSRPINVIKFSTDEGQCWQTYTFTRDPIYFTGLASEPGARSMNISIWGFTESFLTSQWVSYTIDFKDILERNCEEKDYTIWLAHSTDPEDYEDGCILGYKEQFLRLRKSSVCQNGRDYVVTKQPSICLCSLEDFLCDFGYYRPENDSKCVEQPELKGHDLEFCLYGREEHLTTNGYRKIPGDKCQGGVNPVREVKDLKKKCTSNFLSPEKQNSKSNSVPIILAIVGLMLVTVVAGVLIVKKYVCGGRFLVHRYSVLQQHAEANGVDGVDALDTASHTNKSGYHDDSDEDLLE
ASSAY_METHOD_TEXT: cell-based or functional assay
Ends that are not written are not given here. * marks the point of attachment. Azidoacetyl = [N-]=[N+]=NCC(=O)*
One number for each entry, in MFI.

// worked examples, Mean Fluorescence Intensity (MFI), uptake 37C-4C, at 333 nM included
BINDER: KLYENKPRKPYIL (not fully specified (residue 1)) [Compound No. 1270696, XLYENKPRKPYIL peptide conjugated to 20-mer MOE oligonucleotide with 3'-Cy3]
MEASURE_UNIT: MFI
VALUE_REPORTED: 312
--
BINDER: K(Azidoacetyl)LYENKPKKPYIL (not fully specified; printed as 2-azido-acetyl-KLYENKPKKPYIL; also: azide joined via triazolo-BCN carbamate/6-aminohexanol linker to 5' end of 20-mer MOE oligonucleotide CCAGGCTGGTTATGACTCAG (uniform MOE, phosphodiester, 3'-Cy3)) [Compound No. 1270697, … peptide conjugated to 20-mer MOE oligonucleotide with 3'-Cy3]
MEASURE_UNIT: MFI
VALUE_REPORTED: 185

Need Mean Fluorescence Intensity (MFI), uptake 37C-4C, at 333 nM for each of these binders.
1. XLYENKPRRPYIL (not fully specified; position 1 printed dK (X = 2-azido-acetyl lysine); side chain joined via triazolo-BCN carbamate / 6-aminohexanol linker to the 5' end of oligonucleotide … (SEQ ID NO 2, uniform MOE, phosphodiester, 3'-Cy3))
2. XLYENKPKRPYIL (not fully specified; X at position 1 is 2-azido-acetyl lysine, joined via triazolo-BCN carbamate / 6-aminohexanol linker to 5' end of … (SEQ ID NO 2, uniform MOE, phosphodiester, 3'-Cy3)) [Compound No. 1270698, XLYENKPKRPYIL peptide conjugated to 20-mer MOE oligonucleotide with 3'-Cy3]

Result block:
143
155
